- experiment: Selectivity index, ratio of CC50 for cytotoxicity against human HePAD38 cells to EC50 for antiviral activity against Hepatitis B virus infected in human HePAD38 cells
- Assay type: toxicity, cell-based
- experimental.parameters: read-out: Ratio CC50/EC50
Label key: 1 means selectivity ratio under 100; -1 means selectivity ratio of 100 or more.

[[record]]
substance_smiles = "Cc1cc(NC(=O)c2cc(NC(=O)c3ccc(F)cc3)c(F)cc2Br)ccc1F"
label_class = 1

[[record]]
substance_smiles = "Cc1cc(NC(=O)c2cc(NC(=O)C(=O)NC3CC3)c(F)cc2Br)ccc1F"
label_class = 1

[[record]]
substance_smiles = "Cc1cc(NC(=O)c2cc(NC(=S)NCc3ccc(B(O)O)cc3)c(F)cc2Br)ccc1F"
label_class = -1

[[record]]
substance_smiles = "Cc1cc(NC(=O)c2cc(NC(=O)c3cccs3)c(F)cc2Br)ccc1F"
label_class = -1

[[record]]
substance_smiles = "Cc1cc(CNC(=O)Nc2cc(C(=O)Nc3ccc(F)c(C)c3)c(Br)cc2F)ccc1F"
label_class = 1

[[record]]
substance_smiles = "O=C(Nc1ccc(F)cc1)c1cc(S(=O)(=O)NC2CCCC2)c(F)cc1Br"
label_class = 1

[[record]]
substance_smiles = "Cc1cc(NC(=O)c2cc(NC(=O)c3ccc(C#N)cc3)c(F)cc2Br)ccc1F"
label_class = -1

[[record]]
substance_smiles = "O=C(Nc1cc(F)c(F)c(F)c1)c1cc(S(=O)(=O)N2CCC(O)CC2)c(F)cc1Br"
label_class = 1

[[record]]
substance_smiles = "Cc1cc(NC(=O)c2cc(S(=O)(=O)NC3CCCC3)c(F)cc2Br)ccc1F"
label_class = -1


###

- experiment: Cytotoxicity against human HePAD38 cells assessed as reduction in cell viability incubated for 72 hrs by CCK8 assay
- Assay type: toxicity, cell-based
value.kind: CC50 at 72 h (µM)

[[record]]
molecule = "CCC(CC)NC(=O)Nc1cc(C(=O)Nc2ccc(F)c(C)c2)c(Br)cc1F"
value_kind = "CC50 at 72 h"
sign_qualifier = "="
result_number = 18.1

[[record]]
molecule = "O=C(Nc1ccc(F)c(C(F)(F)F)c1)c1cc(S(=O)(=O)NC2CCCC2)c(F)cc1Br"
value_kind = "CC50 at 72 h"
sign_qualifier = ">"
result_number = 100

[[record]]
molecule = "CCCc1ccc(C(=O)Nc2cc(C(=O)Nc3ccc(F)c(C)c3)c(Br)cc2F)cc1"
value_kind = "CC50 at 72 h"
sign_qualifier = "="
result_number = 32

[[record]]
molecule = "Cc1cc(NC(=O)c2cc(NC(=S)NC(C)C(F)(F)F)c(F)cc2Br)ccc1F (centres undefined)"
value_kind = "CC50 at 72 h"
sign_qualifier = "="
result_number = 17.1

[[record]]
molecule = "Cc1cc(NC(=O)c2cc(NC(=S)NCc3ccc(C(F)(F)F)cc3)c(F)cc2Br)ccc1F"
value_kind = "CC50 at 72 h"
sign_qualifier = "="
result_number = 3.22

[[record]]
molecule = "O=C(Nc1cc(F)cc(F)c1)c1cc(S(=O)(=O)NC2CCCC2)c(F)cc1Br"
value_kind = "CC50 at 72 h"
sign_qualifier = ">"
result_number = 100

[[record]]
molecule = "O=C(Nc1cc(F)c(F)c(F)c1)c1cc(S(=O)(=O)N2CCC(O)CC2)c(F)cc1Br"
value_kind = "CC50 at 72 h"
sign_qualifier = "="
result_number = 3.41

[[record]]
molecule = "Cc1cc(CNC(=S)Nc2cc(C(=O)Nc3ccc(F)c(C)c3)c(Br)cc2F)ccc1F"
value_kind = "CC50 at 72 h"
sign_qualifier = "="
result_number = 3.71

[[record]]
molecule = "O=C(Nc1ccc(F)c(F)c1)c1cc(S(=O)(=O)N[C@H]2CCOC2)c(F)cc1Br"
value_kind = "CC50 at 72 h"
sign_qualifier = "="
result_number = 63.7


###

- experiment: AUC(0 to infinity) in Sprague-Dawley rat at 2 mg/kg, iv by LC-MS/MS analysis
- Format: ADME, organism-based
- Design: dose 2 mg/kg, route iv
- experimental.parameters: in vivo
value.kind: AUC(0-inf)

[[record]]
substance_smiles = "C=CCNC(=S)Nc1cc(C(=O)Nc2ccc(F)c(C)c2)c(C)cc1F"
result = "3260 ng·h/mL"


###

Entries and their IC50
- target.or.system: Core antigen (Hepatitis B virus, UniProt Q03732)
- Sequence (Q03732 whole entry): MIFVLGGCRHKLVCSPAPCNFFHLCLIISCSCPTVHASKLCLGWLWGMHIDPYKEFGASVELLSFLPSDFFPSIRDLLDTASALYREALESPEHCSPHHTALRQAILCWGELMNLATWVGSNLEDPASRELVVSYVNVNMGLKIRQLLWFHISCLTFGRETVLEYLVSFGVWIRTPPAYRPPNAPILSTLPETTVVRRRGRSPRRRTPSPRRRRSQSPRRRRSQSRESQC
value.kind: IC50 (nM)

[[record]]
substance_smiles = "Cc1cc(NC(=O)c2cc(NC(=S)NC(C)C)c(F)cc2Br)ccc1F"
result_number = 940

[[record]]
substance_smiles = "C=CCNC(=S)Nc1cc(C(=O)Nc2ccc(F)c(C)c2)c(C)cc1F"
result_number = 880

[[record]]
substance_smiles = "CCOC(=O)C1=C(CN2CCOCC2)NC(c2nccs2)=N[C@H]1c1ccc(C)cc1Br"
result_number = 860

[[record]]
substance_smiles = "O=C(Nc1cc(F)c(F)c(F)c1)c1ccc(F)c(S(=O)(=O)N2CCC(O)CC2)c1"
result_number = 1530


###

- experiment: MRT(0 to t) in Sprague-Dawley rat at 20 mg/kg, po by LC-MS/MS analysis
- Type: ADME, organism-based
- experimental.parameters: in vivo
value.kind: MRT last (h)

[[record]]
substance_smiles = "C=CCNC(=S)Nc1cc(C(=O)Nc2ccc(F)c(C)c2)c(C)cc1F"
result_number = 3.16


###

- experiment: Half life in human plasma at 100 uM by LC-MS/MS analysis
- Format: ADME, cell-free
value.kind: half-life at 100 µM (min)

[[record]]
substance_smiles = "C=CCNC(=S)Nc1cc(C(=O)Nc2ccc(F)c(C)c2)c(C)cc1F"
value_kind = "half-life at 100 µM"
readout_unit = "min"
result_number = 54


###

- experiment: Cytotoxicity against human HePAD38 cells assessed as reduction in cell viability incubated for 72 hrs by CCK8 assay
- Assay type: toxicity, cell-based
value.kind: CC50 at 72 h (µM)

[[record]]
compound = "Cc1cc(NC(=O)c2cc(S(=O)(=O)N[C@H]3CCOC3)c(F)cc2Br)ccc1F"
value_kind = "CC50 at 72 h"
sign_qualifier = ">"
result_number = 100

[[record]]
compound = "Cc1ccc(C(=O)Nc2cc(C(=O)Nc3ccc(F)c(C)c3)c(Br)cc2F)cc1"
value_kind = "CC50 at 72 h"
sign_qualifier = "="
result_number = 20.9

[[record]]
compound = "COc1ccc(CNC(=O)Nc2cc(C(=O)Nc3ccc(F)c(C)c3)c(Br)cc2F)cc1"
value_kind = "CC50 at 72 h"
sign_qualifier = "="
result_number = 4.88

[[record]]
compound = "Cc1cc(NC(=O)c2cc(NC(=S)NCc3ccc(B(O)O)cc3)c(F)cc2C)ccc1F"
value_kind = "CC50 at 72 h"
sign_qualifier = "="
result_number = 5.95

[[record]]
compound = "O=C(Nc1cc(F)c(F)c(F)c1)c1cc(S(=O)(=O)NC2CCCC2)c(F)cc1Br"
value_kind = "CC50 at 72 h"
sign_qualifier = "="
result_number = 34.5

[[record]]
compound = "Cc1cc(NC(=O)c2cc(NC(=S)NC(C)C)c(F)cc2Br)ccc1F"
value_kind = "CC50 at 72 h"
sign_qualifier = ">"
result_number = 100

[[record]]
compound = "C=C1[C@H](CO)[C@@H](O)C[C@@H]1n1cnc2c(=O)[nH]c(N)nc21 [ENTECAVIR ANHYDROUS]"
value_kind = "CC50 at 72 h"
sign_qualifier = "="
result_number = 79.3

[[record]]
compound = "C=CCNC(=S)Nc1cc(C(=O)Nc2ccc(F)c(C)c2)c(Br)cc1F"
value_kind = "CC50 at 72 h"
sign_qualifier = "="
result_number = 50.1

[[record]]
compound = "Cc1cc(NC(=O)c2cc(NC(=O)N3CCC(O)CC3)c(F)cc2Br)ccc1F"
value_kind = "CC50 at 72 h"
sign_qualifier = ">"
result_number = 100

[[record]]
compound = "C=CC(=O)Nc1cc(C(=O)Nc2ccc(F)c(C)c2)c(Br)cc1F"
value_kind = "CC50 at 72 h"
sign_qualifier = "="
result_number = 7.98


###

- experiment: Selectivity index, ratio of CC50 for cytotoxicity against human HePAD38 cells to EC50 for antiviral activity against Hepatitis B virus infected in human HePAD38 cells
- Format: toxicity, cell-based
- experimental.parameters: read-out: Ratio CC50/EC50
Label key: 1 means selectivity ratio under 20; -1 means selectivity ratio of 20 or more.

[[record]]
substance_smiles = "Cc1cc(NC(=O)c2cc(NC(=S)NC(C)C)c(F)cc2Br)ccc1F"
label_class = -1

[[record]]
substance_smiles = "Cc1cc(NC(=O)c2cc(NC(=O)NCc3ccc(O)cc3)c(F)cc2Br)ccc1F"
label_class = 1

[[record]]
substance_smiles = "C=CCNC(=S)Nc1cc(C(=O)Nc2ccc(F)c(C)c2)c(Br)cc1F"
label_class = -1

[[record]]
substance_smiles = "Cc1cc(NC(=O)c2cc(NC(=O)Nc3ccc(C(F)(F)F)cc3)c(F)cc2Br)ccc1F"
label_class = 1

[[record]]
substance_smiles = "Cc1cc(CNC(=S)Nc2cc(C(=O)Nc3ccc(F)c(C)c3)c(Br)cc2F)ccc1F"
label_class = -1

[[record]]
substance_smiles = "CCNC(=S)Nc1cc(C(=O)Nc2ccc(F)c(C)c2)c(Br)cc1F"
label_class = -1

[[record]]
substance_smiles = "Cc1cc(NC(=O)c2cc(NC(=O)c3ccc(C(F)(F)F)cc3)c(F)cc2Br)ccc1F"
label_class = 1

[[record]]
substance_smiles = "Cc1cc(NC(=O)c2cc(NC(=O)c3ccc(Br)cc3)c(F)cc2Br)ccc1F"
label_class = 1

[[record]]
substance_smiles = "Cc1cc(NC(=O)c2cc(NC(=S)NCc3cc(F)cc(F)c3)c(F)cc2Br)ccc1F"
label_class = 1

[[record]]
substance_smiles = "Cc1cc(NC(=O)c2cc(NC(=O)C(=O)NC(C)C)c(F)cc2Br)ccc1F"
label_class = -1

